Tested on: Sida spinosa
Test: Phytotoxicity against Prickly sida assessed as leaf necrotic lesions at 100 ug by detached leaf spot method
Format: functional
valueType: Activity

Identify measured Activity corresponding to O=C(O)c1ccc(O)cc1 [PARABEN] 31 mm2

Identify measured Activity corresponding to CC(=O)Oc1cc(O)c2c(c1)C[C@H](C)OC2=O 34 mm2

Identify measured Activity corresponding to O=C1CC[C@@H](O)c2cccc(O)c21 18 mm2

Identify measured Activity corresponding to CC(C)=CCc1cc(C(=O)O)ccc1O 42 mm2

Identify measured Activity corresponding to CC(=O)Oc1ccc(C(=O)O)cc1CC=C(C)C 36 mm2

Identify measured Activity corresponding to C[C@H]1Cc2cc(O)cc(O)c2C(=O)O1 40 mm2

====

Test system: Cornus florida
Assay: Phytotoxicity against Dogwood NCPV 100 assessed as leaf necrotic lesions at 50 ug by detached leaf spot method
Format: functional
What Activity was measured for each of the following?
Quick note: give the figure in mm2, leave out the unit.

Identify measured Activity corresponding to C[C@H]1Cc2cc(O)cc(O)c2C(=O)O1 7

Identify measured Activity corresponding to CC(=O)Oc1ccc(C(=O)O)cc1CC=C(C)C 51

Identify measured Activity corresponding to CC(=O)Oc1cc(O)c2c(c1)C[C@H](C)OC2=O 2

Identify measured Activity corresponding to CC(C)=CCc1cc(C(=O)O)ccc1O 38

Identify measured Activity corresponding to O=C(O)c1ccc(O)cc1 [PARABEN] 11

Identify measured Activity corresponding to O=C1CC[C@@H](O)c2cccc(O)c21 12

====

What log10(Activity) was measured for each of the following?
Test system: Sorghum
Test: Phytotoxicity against Sorghum assessed as leaf necrotic lesions at 100 ug by detached leaf spot method
Format: functional
Remember, log10 of Activity, in mm2.

Identify measured log10(Activity) corresponding to CC(C)=CCc1cc(C(=O)O)ccc1O 1.88

Identify measured log10(Activity) corresponding to O=C1CC[C@@H](O)c2cccc(O)c21 0.85

Identify measured log10(Activity) corresponding to O=C(O)c1ccc(O)cc1 [PARABEN] 1.28

Identify measured log10(Activity) corresponding to CC(=O)Oc1ccc(C(=O)O)cc1CC=C(C)C 1.86

Identify measured log10(Activity) corresponding to C[C@H]1Cc2cc(O)cc(O)c2C(=O)O1 1.60

Identify measured log10(Activity) corresponding to CC(=O)Oc1cc(O)c2c(c1)C[C@H](C)OC2=O 1.38

====

System: Cornus florida
Test: Phytotoxicity against Dogwood NCPV 101 assessed as leaf necrotic lesions at 50 ug by detached leaf spot method
Assay type: functional
valueType: Activity (mm2)
Quick note: give the figure in mm2, leave out the unit.

Report Activity under test system Cornus florida for C[C@H]1Cc2cc(O)cc(O)c2C(=O)O1 . 14

Report Activity under test system Cornus florida for CC(C)=CCc1cc(C(=O)O)ccc1O . 14

Report Activity under test system Cornus florida for CC(=O)Oc1cc(O)c2c(c1)C[C@H](C)OC2=O . 1

Report Activity under test system Cornus florida for CC(=O)Oc1ccc(C(=O)O)cc1CC=C(C)C . 23

Report Activity under test system Cornus florida for O=C(O)c1ccc(O)cc1 . 10

Report Activity under test system Cornus florida for O=C1CC[C@@H](O)c2cccc(O)c21 . 5
